src = patent US20170050957A1

The following molecules are shown together with reported pest or weed control at 140 g/ha values.
Test system: Key Broadleaf Weed and Crop Species
Test: Post-emergent Test II herbicidal activity (Table 15)
Type: in vivo
Conditions: Brassica napus, post-emergence, 336 h, oilseed rape, canola (Brassica napus), 140 g ai/ha, 14 d, read-out: Visual Growth Reduction (%) 14 Days After Application, BRSNN

COC(=O)c1nc(-c2cc3occc3cc2F)c(F)c(N)c1Cl | 75 to 84%

Challenge: Sample "COC(=O)c1nc(-c2ccc(Cl)c3occc23)nc(N)c1Cl" — what was its pest or weed control at 140 g/ha?
Response given: 30 to 44%

Challenge: Proceed to "Nc1c(F)c(-c2cccc3occc23)nc(C(=O)O)c1Cl"
Response given: 75 to 84%

====

The following compounds are shown together with reported pest or weed control at 70 g/ha values.
System: Key Broadleaf Weed and Crop Species
Assay: Post-emergent Test II herbicidal activity (Table 15)
Assay type: in vivo
Details: Brassica napus, post-emergence, 336 h, oilseed rape, canola (Brassica napus), 70 g ai/ha, 14 d, read-out: Visual Growth Reduction (%) 14 Days After Application, BRSNN

Some compounds with known pest or weed control at 70 g/ha results, for comparison:
COC(=O)c1nc(-c2cccc3ccsc23)c(F)c(N)c1Cl | 45 to 59%
COC(=O)c1nc(-c2ccc3[nH]ccc3c2)c(F)c(N)c1Cl | 0 to 29%
COC(=O)c1nc(-c2ccc(Cl)c3[nH]ccc23)c(F)c(N)c1Cl | 0 to 29%

Challenge: Sample "COC(=O)c1nc(-c2ccc(Cl)c3occc23)c(F)c(N)c1Cl" — what was its pest or weed control at 70 g/ha?
Response given: 60 to 74%

Challenge: Proceed to "COC(=O)c1nc(-c2ccc3ccoc3c2F)c(F)c(N)c1Cl"
Response given: 75 to 84%

Challenge: Proceed to "COC(=O)c1nc(-c2cccc3sccc23)c(F)c(N)c1Cl"
Response given: 0 to 29%

====

The following compounds are shown together with reported pest or weed control at 70 g/ha values.
System: Key Broadleaf Weed and Crop Species
Assay: Post-emergent Test II herbicidal activity (Table 15)
Format: in vivo
Conditions: Abutilon theophrasti, post-emergence, 336 h, velvetleaf (Abutilon theophrasti), 70 g ai/ha, 14 d, read-out: Visual Growth Reduction (%) 14 Days After Application, ABUTH

Some compounds with known pest or weed control at 70 g/ha results, for comparison:
COC(=O)c1nc(-c2ccc(Cl)c3[nH]ccc23)nc(N)c1OC | 0 to 29%
Nc1cc(-c2ccc3cc[nH]c3c2)nc(C(=O)O)c1Cl | 0 to 29%
COC(=O)c1nc(-c2ccc3ccsc3c2)cc(N)c1Cl | 95 to 100%
COC(=O)c1nc(-c2cccc3ccsc23)cc(N)c1Cl | 0 to 29%
COC(=O)c1nc(-c2ccc3sccc3c2)cc(N)c1Cl | 85 to 94%
COC(=O)c1nc(-c2ccc3cc[nH]c3c2)c(F)c(N)c1Cl | 95 to 100%

Please look at the following compound next.
Challenge: Sample "COC(=O)c1nc(-c2cc3occc3cc2F)nc(N)c1OC" — what was its pest or weed control at 70 g/ha?
Response given: 0 to 29%

====

MEASURE: melting point

COC(=O)c1nc(-c2ccc3[nH]nnc3c2)cc(N)c1Cl [Compound 9.01] | 129 to 133 °C
COC(=O)c1nc(-c2ccc3cn[nH]c3c2)cc(N)c1Cl [Compound 4.09] | 191 to 193 °C
Nc1c(F)c(-c2cccc3occc23)nc(C(=O)O)c1Cl [Compound 2.17] | 170 to 173 °C
C=Cc1c(C(=O)OC)nc(-c2ccc3cc[nH]c3c2F)c(F)c1N [Compound 1.18] | 164 to 166 °C
C=Cc1c(N)nc(-c2ccc3cc[nH]c3c2F)nc1C(=O)OC [Compound 1.38] | 181 to 182 °C
COC(=O)c1nc(-c2cc3sccc3cc2F)nc(N)c1OC [Compound 3.22] | 168 °C

Challenge: Sample COC(=O)c1nc(-c2ccc3[nH]ccc3c2)c(F)c(N)c1Cl [Compound 1.02] — what was its melting point?
Response given: 221 to 224 °C

Challenge: Proceed to COC(=O)c1nc(-c2ccc3ccoc3c2F)cc(N)c1Cl [Compound 2.11]
Response given: 148 °C

Challenge: Proceed to Nc1c(Cl)c(C(=O)O)nc(-c2ccc3ccsc3c2)c1Cl [Compound 3.11]
Response given: 239 °C (dec.)

Challenge: Proceed to COC(=O)c1nc(-c2ccc3occc3c2)cc(N)c1Cl [Compound 2.03]
Response given: 84 to 87 °C
